Reported log10 of AST is given for each of the following substances.
# test_name: Tolerability in Balb/c mice, plasma chemistry markers (Example 11)
# Format: in vivo
# cond: 50 mg/kg subcutaneously twice a week for four weeks
Strand notation (5' to 3'): a small letter for the sugar, then the base; units joined by * are phosphorothioate-linked, units joined directly phosphodiester-linked; [ ] holds rarer units or linkages, { } end groups; capitals alone tell only the bases. k = constrained ethyl (cEt); [5mC] = 5-methylcytosine; d = 2'-deoxy (DNA)
Scale: decimal log of AST, AST in U/L.

715483 (k[5mC]*kT*k[5mC]*dT*dT*dT*dG*dG*dA*dA*dA*d[5mC]*d[5mC]*kA*kT*kT) [compound 715483] :: 1.85
715415 (k[5mC]*kG*kA*dA*d[5mC]*dA*dT*dG*d[5mC]*dT*dG*dT*dG*kG*kA*kG; antisense) [compound 715415] :: 2.85
716513 (antisense kA*kA*kT*d[5mC]*dT*dT*dA*dA*dT*d[5mC]*dT*dG*dT*kG*kG*k[5mC]) [compound 716513] :: 2.36

stdin: Would you mind telling me what log10 of AST value was observed for 715487 (kA*kT*kT*dA*d[5mC]*dT*dT*d[5mC]*dA*dT*dA*dG*d[5mC]*kT*kT*kA) [compound 715487] ?
stdout: 1.91

stdin: # lookup: log10 of AST of 716424 (antisense kG*k[5mC]*kA*dA*dT*dG*dG*dA*d[5mC]*dA*dA*dG*dG*kA*kA*kG) [compound 716424]
stdout: 3.15

stdin: Reported log10 of AST, substance 715473 (kT*k[5mC]*kT*dT*dT*dA*dT*d[5mC]*dT*dA*dG*d[5mC]*dT*kT*kG*kG; antisense) [compound 715473] : ____
stdout: 3.46

====

# Tested on: Yap1 mRNA
# test_name: Antisense inhibition of human Yap1 in A-431 cells by cEt gapmers, single dose (Example 2, RTS4814)
# Type: cell-based
# cond: Table 21; Yap1 mRNA, percent of untreated control; 3-10-3 cEt gapmers targeting SEQ ID NO.: 1 and 2
Strand notation (5' to 3'): a small letter for the sugar, then the base; units joined by * are phosphorothioate-linked, units joined directly phosphodiester-linked; [ ] holds rarer units or linkages, { } end groups; capitals alone tell only the bases. k = constrained ethyl (cEt); [5mC] = 5-methylcytosine; d = 2'-deoxy (DNA)
measured_property: YAP1 (% UTC)

stdin: Could you tell me which YAP1 (% UTC) is on file for 1076359 (kA*kT*kT*dT*dA*dT*d[5mC]*d[5mC]*dT*dA*dG*dT*dT*kA*k[5mC]*k[5mC]; antisense) [Compound 1076359] ?
stdout: 29 % UTC

stdin: For 1074983 (antisense k[5mC]*kA*k[5mC]*d[5mC]*dT*dT*dT*dT*dA*dT*dT*dG*d[5mC]*k[5mC]*kA*kG) [Compound 1074983] , what is its reported YAP1 (% UTC)?
stdout: 11 % UTC

stdin: Please report the recorded YAP1 (% UTC) for 1075943 (kG*kT*kA*dT*dA*dT*d[5mC]*dA*dA*dA*d[5mC]*d[5mC]*dT*kT*kT*kT; antisense) [Compound 1075943] .
stdout: 15 % UTC

stdin: Which YAP1 (% UTC) reading was recorded for the substance 958499 (kA*kT*kT*dA*dG*dA*dG*dT*dA*dT*dG*dT*dG*kG*k[5mC]*kA) [Compound 958499] ?
stdout: 1 % UTC

stdin: Requested field: YAP1 (% UTC). Item: 1075847 (k[5mC]*kT*kT*dT*dA*dT*dA*dG*d[5mC]*dA*dG*dA*dT*kG*k[5mC]*k[5mC]; antisense) [Compound 1075847]
stdout: 14 % UTC

stdin: Bench note: what YAP1 (% UTC) did 1075559 (kG*kA*kT*dA*dT*dT*dA*dA*dG*dG*dT*dG*dG*k[5mC]*kT*kT; antisense) [Compound 1075559] show?
stdout: 24 % UTC

stdin: I have this substance here, 1076039 (kG*kA*kT*dT*dA*dG*dA*dG*d[5mC]*dT*dG*dT*dA*kT*kT*k[5mC]; antisense) [Compound 1076039] , and I need its recorded YAP1 (% UTC).
stdout: 29 % UTC

stdin: Look up YAP1 (% UTC): 1076199 (kT*kA*kT*d[5mC]*dA*dA*dA*dA*dG*dT*d[5mC]*d[5mC]*dA*kT*k[5mC]*k[5mC]; antisense) [Compound 1076199]
stdout: 37 % UTC

stdin: // query YAP1 (% UTC) value for entry 1076423 (k[5mC]*k[5mC]*kT*dG*dA*dA*d[5mC]*d[5mC]*dT*dT*d[5mC]*dT*dG*kG*kA*kT; antisense) [Compound 1076423]
stdout: 93 % UTC

stdin: Query (substance): 1074375 (antisense kG*k[5mC]*kA*dG*dG*dG*dT*dG*d[5mC]*dT*dT*dT*dG*kG*kT*kT) [Compound 1074375] ; field requested: YAP1 (% UTC)
stdout: 33 % UTC

stdin: Give its YAP1 (% UTC) value. Item: 1074343 (antisense kA*kG*kA*d[5mC]*dA*dT*d[5mC]*d[5mC]*d[5mC]*dG*dG*dG*dA*kG*kA*kA) [Compound 1074343]
stdout: 18 % UTC

stdin: Please look up its YAP1 (% UTC): 1075463 (antisense k[5mC]*kT*kT*dA*dA*dT*d[5mC]*d[5mC]*dA*dA*dA*dG*d[5mC]*kT*kT*k[5mC]) [Compound 1075463]
stdout: 34 % UTC

stdin: Suppose we examine the substance 1074567 (antisense kA*kA*k[5mC]*d[5mC]*dT*dA*d[5mC]*dT*d[5mC]*dA*d[5mC]*dT*dG*kA*kA*kT) [Compound 1074567] ; what YAP1 (% UTC) value has been reported?
stdout: 38 % UTC

stdin: # YAP1 (% UTC) lookup, item 1075431 (antisense kT*kA*kA*d[5mC]*dT*dA*dA*dA*d[5mC]*dT*dG*dA*dT*kT*k[5mC]*k[5mC]) [Compound 1075431]
stdout: 74 % UTC

stdin: Fill in: YAP1 (% UTC) of 1075303 (kT*kA*kA*dA*d[5mC]*dT*dA*dA*dT*d[5mC]*dT*dA*d[5mC]*kA*kA*k[5mC]; antisense) [Compound 1075303] is ___
stdout: 100 % UTC

These data points were gathered from patent US11214803B2.
